method: Plasmodium falciparum growth inhibition, primary screen, strain 3D7, DAPI fluorescence, 100 nL (AID 1184);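 note: parasites grown inside human red blood cells in medium with human serum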
testConditions: P. falciparum 3D7 growth, 3 d, higher = more signal
property: z-score
Reply with the value as a number alone.

compound	reportedMeasurement
COC(=O)C1=C(C)N(Cc2ccccc2)[C@]23O[C@](C(=O)OC)(C(=O)N2[C@@H]1c1ccccc1)[C@H]1CCOC(=O)[C@H]13	-0.303
O=C1[C@H]2[C@H]3[C@H](O)[C@H](O)CC(=NO[C@@H]4O[C@H](CO)[C@@H](O)[C@H](O)[C@H]4O)[C@H]3CC[C@H]2C(=O)N1Cc1ccc2c(c1)OCO2	0.185
COC(=O)CC=C[C@H](C)[C@@H](OCc1ccccc1Br)C(C)C	-0.0811
COc1ccc(O[C@H]2C=C[C@@H](c3ccccc3)O[C@@H]2COC(=O)CCC(C)=NOC[C@@H](C)[C@H](OCc2ccccc2)C(C)C)cc1	-0.925
CC1(C)OCC(C(O)C2=CCCCC2=O)CO1 (stereo not drawn)	-0.831

Exam item: So what does the record say about z-score for C[C@@H]1CCC2C(=O)N(Cc3ccccc3)C[C@@H](O)CN2[C@H]1c1ccc(Br)cc1 (stereo partly drawn) ?
Marked response: 0.787

Exam item: Again, but for COC(=O)CC=C[C@@H](C)[C@H](OC)c1ccccc1Br
Marked response: 0.805

Exam item: // next record CC(=O)OC[C@H]1O[C@H](CC=NOC[C@@H](C)[C@H](OCc2ccccc2)C(C)C)C=C[C@@H]1OC(C)=O
Marked response: -0.46

Exam item: Again, but for CC(C)=CCCC(C)=CCON=C1C[C@@H](O)[C@@H](O)[C@@H]2[C@@H]3C(=O)N(C[C@@H]4CCCO4)C(=O)[C@@H]3CC[C@@H]12
Marked response: 1.55

Exam item: Also CO[C@@H]1COC(=O)CCC[C@@H](C)[C@H](OC)COC(=O)[C@H](Cc2ccccc2)NC(=O)CC=C[C@H]1C , if possible.
Marked response: -1.34

Exam item: Next compound: COC(=O)[C@]1(CO)N=C(c2ccc(OCCCO)cc2)O[C@@H]1c1ccccc1N=[N+]=[N-]
Marked response: -0.313

Exam item: Now this one: COc1cccc([C@H]2Oc3ccc(OC)cc3C(=NOC(C)CN3CCCc4nc(C)c(C)cc43)[C@@H]2O)c1 (stereo partly drawn)
Marked response: -1.06

Exam item: Same thing, different compound: COc1ccc(O[C@H]2C=C[C@@H](c3ccccc3)O[C@@H]2COC(=O)N2CCCCC2)cc1
Marked response: -0.43

Exam item: Also check Cc1ccc(F)cc1S(=O)(=O)N[C@@H]1CCN(Cc2ccc(CC(C)C)cc2)C1
Marked response: -1.66

Exam item: And what about the compound NCCCCCNC(=O)[C@@H]1C[C@@H]2C(=O)N3CCC[C@H]3C(=O)N2[C@@H]1c1cccc(OCCO)c1 ?
Marked response: 0.398

Exam item: Try CC(CCN1CCCCc2nc(C)c(C)cc21)=NOC(C)CN1CCCc2nc(C)c(C)cc21 (stereo not drawn) next.
Marked response: 0.507

Exam item: Repeat for the following compound: CCCCCCc1nc(CCCc2cc3c(c(CCCCCC)n2)[Si](C(C)C)(C(C)C)O[C@H]3c2ccccc2)cc2c1[Si](C(C)C)(C(C)C)O[C@H]2c1ccccc1
Marked response: -0.607

Exam item: Subsequent entry: COC(=O)[C@H](C)NC(=O)[C@@H](C)CO
Marked response: -0.613

Exam item: Now this one: C=C(/C(=C/C[C@H](OC(=O)c1ccncc1)c1ccc(OCCO)cc1)c1cnc2ccccc2c1)C(C)C
Marked response: -2.84

Exam item: Thanks! And COc1ccccc1CN1C(=O)c2ccccc2[C@@]2(Cc3ccccc3N(C(C)C)C2=O)[C@@H]1c1ccc(CO)cc1 ?
Marked response: 0.559

Exam item: Further, for COC(=O)[C@H](C)NC(=O)CCC1CC(OC(=O)NCCc2ccc(F)cc2)CC2(CCCC(COC(=O)NCCc3ccc(Cl)cc3)O2)O1 (stereo partly drawn) ?
Marked response: -1.5

Exam item: For Cc1cc2c(nc1C)CCCN2CC(O)CN1CCN(C)CC1 (stereo not drawn) then?
Marked response: 0.547

Exam item: # iterate: O[C@@H](Cc1ccccc1)[C@H]1C2C=CCCC(c3ccccc3)=C2CN1Cc1cccc(Cl)c1 (stereo partly drawn)
Marked response: 0.514
